All figures here come from patent US20180185450A1.

target: human GLP-1 receptor (human, UniProt P43220 24-463); experiment: cell-based or functional assay
Numbered stars: 1 amine (or outer) side, 2 acyl side, 3 side chain; on linkers, the order of the positions; unused ones are H or OH. Square brackets hold non-standard residues; d marks the D form. Side chains are listed from the residue outwards. Ends that are not written are not given here. γGlu = O=C(O)[C@H](CCC(=O)[*:2])N[*:1]; X70 = not defined here; x53 = not defined here; x70 = not defined here; Aib = CC(C)(N)C(=O)O
This listing pairs binders with measured EC50 hGLP-1R (cAMP).

| binder | EC50 hGLP-1R (cAMP) (pM) |
| --- | --- |
| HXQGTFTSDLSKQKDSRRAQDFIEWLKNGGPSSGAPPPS (dSer at 2; K(γE-x53) at 14; C-terminal NH(benzyl)) [SEQ ID NO: 99] | 15.9 |
| HAEGTFTSDVSSYLEGQAAKEIAWLVKGR-NH2 [GLP-1(7-36)-amide] | 0.7 |
| HXQGTFTSDLSKQKDSQAAQDFIEWLKRGGPSSGAPPPS (dSer at 2; K(γE-x53) at 14; C-terminal NH2) [SEQ ID NO: 123] | 2.6 |
| HXQGTFTSDLSKQKESRRAQDFIEWLKNGGPSSGAPPPSK (dSer at 2; K(γE-x53) at 14; C-terminal NH2) [SEQ ID NO: 111] | 8.1 |
| HXQGTFTSDLSKQKEEEAAKLFIEWLKAGGPSSGAPPPS (dSer at 2; K(γE-x53) at 14; C-terminal NH2) [SEQ ID NO: 19] | 1.9 |
| H[Aib]HGTFTSDLSKQK([γGlu-X70])EEEAARLFIEWLKAGGPSSGAPPPS-NH2 (reading uncertain) [SEQ ID NO: 217] | 4.3 |
| HXQGTFTSDLSKQKESRRAQDFIEWLKEGGPSSGRPPPS (dSer at 2; K(x53) at 14; C-terminal NH2) [SEQ ID NO: 83] | 53.9 |
| HXQGTFTSDLSKQKESQAAQDFIEWLKAGGPSSGAPPPS (dSer at 2; K(γE-x70) at 14; C-terminal NH2) [SEQ ID NO: 40] | 2.6 |
| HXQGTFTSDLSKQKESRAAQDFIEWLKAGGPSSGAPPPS (dSer at 2; K(γE-x81) at 14; C-terminal NH2) [SEQ ID NO: 63] | 4.9 |
| HXQGTFTSDLSKQKDEEAARLFIEWLKAGGPSSGAPPPS (dSer at 2; K(γE-X70) at 14; C-terminal NH2) [SEQ ID NO: 222] | 1.8 |
| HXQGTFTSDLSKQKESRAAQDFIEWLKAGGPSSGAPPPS (dSer at 2; K(γE-x75) at 14; C-terminal NH2) [SEQ ID NO: 9] | 2.2 |
| H[Aib]QGTFTSDLSKQK([γGlu-x70])DEEAAKLFIEWLKAGGPSSGAPPPS-NH2 (reading uncertain) [SEQ ID NO: 213] | 2.7 |
| HXQGTFTSDLSKQKDSRRAXDFIEWLKNGGPSSGAPPPS (dSer at 2; K(γE-x53) at 14; Aib at 20; C-terminal NH2) [SEQ ID NO: 118] | 15.3 |
| HXQGTFTSDLSKQKESKAAQDFIEWLKAGGPSSGAPPPS (dSer at 2; K(γE-x70) at 14; C-terminal NH2) [SEQ ID NO: 26] | 5.1 |
| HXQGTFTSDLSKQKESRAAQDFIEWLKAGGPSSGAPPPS (dSer at 2; K(GABA-x60) at 14; C-terminal NH2) [SEQ ID NO: 58] | 45.6 |
| HXQGTFTSDLSKQKESRRAQDFIEWLKRGGPSSGAPPPS (dSer at 2; K(γE-x53) at 14; C-terminal NH2) [SEQ ID NO: 127] | 14.7 |
| HXQGTFTSDLSKQKESRAAQLFIEWLKAGGPSSGAPPPS (dSer at 2; K(γE-x53) at 14; C-terminal NH2) [SEQ ID NO: 48] | 5.9 |
| H[Aib]QGTFTSDLSKQK([γGlu-x53])ESRRAQDFIEWLKAGGPSSGAPPPS-NH2 (reading uncertain) [SEQ ID NO: 77] | 4.3 |
| HXQGTFTSDLSKQKDEQAAQDFIEWLKAGGPSSGAPPPS (dSer at 2; K(γE-x53) at 14; C-terminal NH2) [SEQ ID NO: 34] | 1.5 |
| H[Aib]QGTFTSDLSKQK([γGlu-x53])DSRRAQDFIEWLKNGGPSSGAPPPS-NH2 (reading uncertain) [SEQ ID NO: 115] | 2.4 |
| H[Aib]QGTFTSDLSKQK([γGlu-x53])ES[Aib]AAQDFIEWLKAGGPSSGAPPPS-NH2 (reading uncertain) [SEQ ID NO: 13] | 3.1 |
| HXQGTFTSDLSKQKESRAAQLFIEWLKAGGPSSGAPPPS (dSer at 2; K(γE-x53) at 14; C-terminal NH2) [SEQ ID NO: 70] | 6.5 |
| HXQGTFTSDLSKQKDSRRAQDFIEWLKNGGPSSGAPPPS (dSer at 2; K(γE-x53) at 14; C-terminal NH(pyrrolidin)) [SEQ ID NO: 98] | 9.6 |
| HXQGTFTSDLSKQKDSQAAQDFIEWLKAGGPSSGAPPPS (dSer at 2; K(γE-x53) at 14; C-terminal NH2) [SEQ ID NO: 39] | 2.7 |
